Molecular target: Epidermal growth factor receptor and ErbB2 (HER1 and HER2) (Homo sapiens, UniProt P04626+P00533)
Assay: Concentration needed to inhibit the autophosphorylation of the cytoplasmic domain of Epidermal growth factor receptor using DELFIA/time-resolved fluorimetry.
Format: protein assay
Reported metric: IC50 (µM)
Enter your answer as a number in µM; do not include the unit.

Study these solved cases before continuing.
molecule=COc1cc2ncc(C#N)c(Nc3ccc(C)c(Cl)c3)c2cc1OC reported_metric=IC50 experimental_value=1.48
molecule=COc1cc2ncc(C#N)c(Nc3cccc(SC)c3)c2cc1OC.Cl reported_metric=IC50 experimental_value=0.76
molecule=COc1cc2ncc(C#N)c(Nc3ccc(Cl)cc3F)c2cc1OC reported_metric=IC50 experimental_value=13.85
molecule=COc1cc2ncc(C#N)c(Nc3cccc(Br)c3C)c2cc1OC reported_metric=IC50 experimental_value=0.84
molecule=COc1cc2ncc(C#N)c(Nc3cccc(C#N)c3)c2cc1OC reported_metric=IC50 experimental_value=14.18
molecule=COc1cc2ncc(C#N)c(Nc3ccc(C)c(Br)c3)c2cc1OC reported_metric=IC50 experimental_value=1.79
molecule=COc1cc2ncc(C#N)c(Nc3cccc(Cl)c3)c2cc1OC reported_metric=IC50 experimental_value=0.18
molecule=COc1cc2ncc(C(=O)O)c(Nc3cccc(Br)c3)c2cc1OC reported_metric=IC50 experimental_value=34.22
molecule=COc1cc2ncc(C#N)c(Nc3ccc(O)c(Cl)c3)c2cc1OC reported_metric=IC50 experimental_value=9.04
molecule=COc1cc2ncc(C#N)c(Nc3cccc(N)c3)c2cc1OC reported_metric=IC50 experimental_value=0.82

Can you share its IC50? I mean this molecule: `CCOc1cc2ncc(C#N)c(Nc3cccc(Br)c3)c2cc1OC`
33.02

Can you share its IC50? I mean this molecule: `CCOc1cc2ncc(C#N)c(Nc3ccc(F)c(Cl)c3)c2cc1OCC`
0.98

Can you share its IC50? I mean this molecule: `CCOc1cc2ncc(C#N)c(Nc3cccc(Br)c3)c2cc1OCC`
0.42

Can you share its IC50? I mean this molecule: `COc1cc2ncc(C#N)c(Nc3cccc(C(C)C)c3)c2cc1OC`
62.32

Can you share its IC50? I mean this molecule: `COc1cc2ncc(C#N)c(Nc3ccc(Br)c(C)c3)c2cc1OC`
0.62

Can you share its IC50? I mean this molecule: `N#Cc1cnc2cc3c(cc2c1Nc1cccc(Br)c1)OCCCO3`
5.15

Can you share its IC50? I mean this molecule: `COc1cc2ncc(C#N)c(Nc3cccc(NC(C)=O)c3)c2cc1OC`
69.4

---

Biological target: Epidermal growth factor receptor and ErbB2 (HER1 and HER2) (Homo sapiens, UniProt P04626+P00533)
Experiment: Concentration needed to inhibit the autophosphorylation of the cytoplasmic domain of Epidermal growth factor receptor using DELFIA/time-resolved fluorimetry.
Assay type: protein assay
Response field class: enum, chosen by comparing IC50 against bottom bin (below 4 µM), middle bin (4 µM to below 20 µM), top bin (20 µM or more)

Please review the entries below; each comes with its answer.
molecule=COc1cc2ncc(C#N)c(Nc3ccc(Br)cc3F)c2cc1OC.Cl assigned_category="top bin"
molecule=N#Cc1cnc2cc3c(cc2c1Nc1cccc(Br)c1)OCCO3 assigned_category="top bin"
molecule=COc1cc2ncc(C#N)c(Nc3ccccc3Br)c2cc1OC assigned_category="middle bin"
molecule=CCOC(=O)c1cnc2cc(OC)c(OC)cc2c1Nc1cccc(Br)c1 assigned_category="top bin"
molecule=COc1cc2ncc(CO)c(Nc3cccc(Br)c3)c2cc1OC assigned_category="top bin"
molecule=COc1cc2ncc(C#N)c(Nc3cccc(C(N)=O)c3)c2cc1OC assigned_category="middle bin"
molecule=COc1cc2ncc(C#N)c(Nc3ccc(F)cc3)c2cc1OC assigned_category="top bin"
molecule=COc1cc2c(C#N)cnc(Nc3cccc(Cl)c3)c2cc1OC assigned_category="top bin"

Hi there! Could you help me figure out the category for `COc1cc2ncc(C=O)c(Nc3cccc(Br)c3)c2cc1OC` please?
bottom bin

Hi there! Could you help me figure out the category for `COc1cc2ncc(C#N)c(Nc3cccc(O)c3)c2cc1OC` please?
middle bin

Hi there! Could you help me figure out the category for `COCOc1cc2ncc(C#N)c(Nc3cccc(Br)c3)c2cc1OCOC` please?
middle bin

Hi there! Could you help me figure out the category for `COc1cc2ncc(C#N)c(Nc3cc(Cl)c(O)c(Cl)c3)c2cc1OC` please?
bottom bin

Hi there! Could you help me figure out the category for `CCOc1cc2c(Nc3cccc(Br)c3)c(C#N)cnc2cc1OC` please?
top bin
